# Tested on: Lung
# MEASUREMENT NOTES: Drug uptake in Wistar Han rat lung at 0.1 umol/kg, administered as dry powder inhalation after 4 hrs by LC-MS/MS analysis
# Format: ADME
# RUN PARAMETERS: in vivo, inhaled_or_intranasal
VALUE KIND: Drug uptake (%ID)

COMPOUND: C[C@H](NC(=O)C(C)(F)F)[C@H](Oc1ccc2c(cnn2-c2cccc(C(=O)N[C@@H]3CCS(=O)(=O)C3)c2)c1)c1ccc2c(c1)OCCO2
ASSAYED TARGET: Lung
Drug uptake [%ID]: 93

a. C[C@H](NC(=O)C(C)(F)F)[C@H](Oc1ccc2c(cnn2-c2cccc(C(=O)NCc3cccnc3)c2)c1)c1ccc2c(c1)OCOC2
b. COc1cccc([C@@H](Oc2ccc3c(cnn3-c3ccc(F)cc3)c2)[C@H](C)NC(=O)C(F)(F)F)c1
Input: Form: Entry with minimum Drug uptake (choose one): a / b // caller expects the label of the chosen entry
Output: b
(b: 0.7 %ID, a: 41 %ID)

----------
# MEASUREMENT NOTES: Volume of distribution at steady state in Wistar Han rat at 1 umol/kg, iv administered as bolus dose by LC-MS/MS analysis
# Format: ADME, organism-based
# RUN PARAMETERS: in vivo, read-out: Vdss
VALUE KIND: Vd (L/kg)

Past entries and their recorded results:
COMPOUND: C[C@H](NC(=O)C(C)(F)F)[C@H](Oc1ccc2c(cnn2-c2cccc(C(=O)NCc3cccnc3)c2)c1)c1ccc2c(c1)OCOC2
TEST VALUE: 0.81
//
COMPOUND: COc1cccc([C@@H](Oc2ccc3c(cnn3-c3ccc(F)cc3)c2)[C@H](C)NC(=O)C(F)(F)F)c1 [AZD-5423]
TEST VALUE: 23
//
COMPOUND: C[C@H](NC(=O)C(C)(F)F)[C@H](Oc1ccc2c(cnn2-c2cccc(C(=O)NCc3cccnc3)c2)c1)c1ccc2c(c1)OCCO2
TEST VALUE: 0.97
//
COMPOUND: CCC(=O)O[C@]1(C(=O)SCF)[C@H](C)C[C@H]2[C@@H]3C[C@H](F)C4=CC(=O)C=C[C@]4(C)[C@@]3(F)[C@@H](O)C[C@@]21C [FLUTICASONE PROPIONATE]
TEST VALUE: 31
//
COMPOUND: C[C@H](NC(=O)C(C)(F)F)[C@H](Oc1ccc2c(cnn2-c2cccc(C(=O)N[C@@H]3CCS(=O)(=O)C3)c2)c1)c1ccc2c(c1)OCCO2
TEST VALUE: 2.8

P. C[C@H](NC(=O)C(C)(F)F)[C@H](Oc1ccc2c(cnn2-c2cccc(C(=O)N[C@@H]3CCOC3)c2)c1)c1ccc2c(c1)OCCO2 [VELSECORAT]
Q. C[C@H](NC(=O)C(C)(F)F)[C@H](Oc1ccc2c(cnn2-c2ccc(F)cc2)c1)c1ccc2c(c1)OCCO2
Input: // pick min by Vd: P , Q Give the chosen item's label as your response.
Output: P

----------
# MEASUREMENT NOTES: Intrinsic clearance in human hepatocytes assessed per million cells
# Type: ADME, cell-based, Hepatocyte
# RUN PARAMETERS: read-out: CLH
VALUE KIND: hepatocyte CLint (µL/min/1e6 cells)

P. C[C@H](NC(=O)C(C)(F)F)[C@H](Oc1ccc2c(cnn2-c2cccc(C(=O)N[C@@H]3CCOC3=O)c2)c1)c1ccc2c(c1)OCCO2
Q. C[C@H](NC(=O)C(F)(F)F)[C@H](Oc1ccc2c(cnn2-c2ccc(F)cc2)c1)c1cccc(O)c1
R. C[C@H](NC(=O)C(C)(F)F)[C@H](Oc1ccc2c(cnn2-c2cccc(C(=O)N3CCC[C@@H]3C(N)=O)c2)c1)c1ccc2c(c1)OCOC2
Input: I would appreciate it if you could sort these 3 compounds by hepatocyte CLint, starting from the smallest number. Would you mind listing the labels in the order requested?
Output: R, P, Q
